# targetOrSystem: T1, human GPC3 (human, UniProt P51654 25-563)
# T1 construct: range 25-563; soluble analyte; also called soluble human GPC3; glypican 3
# T1 sequence (P51654 25-563 limits assumed): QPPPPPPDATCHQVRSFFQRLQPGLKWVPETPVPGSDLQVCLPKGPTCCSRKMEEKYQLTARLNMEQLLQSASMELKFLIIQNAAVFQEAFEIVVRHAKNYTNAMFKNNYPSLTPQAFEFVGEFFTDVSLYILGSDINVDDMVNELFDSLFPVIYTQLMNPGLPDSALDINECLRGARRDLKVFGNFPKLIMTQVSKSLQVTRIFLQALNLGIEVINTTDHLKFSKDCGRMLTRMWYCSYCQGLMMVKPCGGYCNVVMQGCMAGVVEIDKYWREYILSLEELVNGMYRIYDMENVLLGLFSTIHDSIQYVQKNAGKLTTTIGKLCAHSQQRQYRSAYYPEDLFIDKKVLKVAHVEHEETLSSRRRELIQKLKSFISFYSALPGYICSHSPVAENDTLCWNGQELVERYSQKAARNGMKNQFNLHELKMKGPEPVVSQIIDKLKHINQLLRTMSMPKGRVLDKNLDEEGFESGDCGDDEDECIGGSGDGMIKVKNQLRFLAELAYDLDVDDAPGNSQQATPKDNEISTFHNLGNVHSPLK
# experimentSummary: SPR
readout: pKd
pKd is defined as minus the log10 of a concentration measured in mol/L.

- GCH035-G1dh/none-Hi-Kn010G3/L0000-k0 (antibody, V domains shown, one-arm) VH: QVQLVQSGAEVKKPGASVKVSCKASGYTFTDYEMHWIRQPPGQGLEWIGAIDGKTPDTAYSQKFKGRVELTADKSTSTAYMELSSLTSEDTAVYYCTRFYSYTYWGQGTLVTVSS VL: DIVMTQSPLSLPVTPGEPASISCRSSQSLVHSNRNTYLHWYQQKPGQAPRLLIYKVSNRFSGVPDRFSGSGSGTDFTLKISRVEAEDVGVYYCGQGTQVPYTFGQGTKLEIKR: 8.31
- GCH054-G1dh/none-Hi-Kn010G3/TR01L019-k0 (antibody, V domains shown, one-arm) VH: QVQLVQSGAEVKKPGASVTVSCKASGYTFTDYEMHWIRQPPGEGLEWIGAIDGETPDTAYSEKFKGRVTLTADKSTSTAYMELSSLTSEDTAVYYCTRFYSYTYWGQGTLVTVSS VL: DIVMTQSPLSLPVTPGEPASISCQASESPVHSNRNTYLHWYLQKPGQSPQLLIYKVSNRFSGVPDRFSGSGSGTDFTLKISRVEAEDVGVYYCYQGTQVPYTFGQGTKLEIK: 9.06

Note: attention shifts to another entry.
Determine from records and report pKd for GCH019-G1dh/none-Hi-Kn010G3/L0000-k0 (antibody, V domains shown, one-arm) VH: QVQLVQSGAEVKKPGASVTVSCKASGYTFTDYEMHWIRQPPGEGLEWIGAIDGKTPDTAYEQKFKGRVTLTADKSTSTAYMELSSLTSEDTAVYYCTRFYSYTYWGQGTLVTVSS VL: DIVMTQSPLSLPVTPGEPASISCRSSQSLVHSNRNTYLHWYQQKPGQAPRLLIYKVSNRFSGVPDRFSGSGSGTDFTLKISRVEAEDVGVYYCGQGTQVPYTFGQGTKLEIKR 8.36

Data credit: patent US20250066503A1
